These measurements were taken from patent US20210386729A1.

- test method notes: Single oral dose plasma pharmacokinetics in healthy subjects
- Type: in vivo, human
- condition: human, 100 ug; healthy subjects, single oral dose 100 μg, fasted, plasma; mean
reported metric: AUC(0-inf)

Provide measured AUC(0-inf) value, entry: O=C(O)c1cc(F)c2nc(N3C4CC[C@H]3CC(OCc3c(-c5ccccc5OC(F)(F)F)noc3C3CC3)C4)sc2c1 (stereo partly shown)
37.9 ng·h/mL

###

- test method notes: Multiple oral dose plasma pharmacokinetics in healthy subjects
- Format: in vivo, human
- condition: human, plasma, po, once daily oral dosing 10-100 μg, fasted, post-dose; read-out: Tmax range
reported metric: Tmax

Provide measured Tmax value, entry: O=C(O)c1cc(F)c2nc(N3C4CC[C@H]3CC(OCc3c(-c5ccccc5OC(F)(F)F)noc3C3CC3)C4)sc2c1 (stereo partly shown) [Compound A]
3 to 10 h
